biological target: Estrogen receptor (Homo sapiens) (UniProt Q92731+P03372); test: Selectivity ratio as relative binding affinity for estrogen receptor alpha and beta; format: protein assay
QUANTITY: Ratio

[1] CCc1c(-c2ccc(O)cc2)nn(-c2ccc(O)cc2)c1C1CCCCC1
[2] CCCc1c(-c2ccc(O)cc2)nn(C2CCCCC2)c1-c1ccc(O)cc1
[3] CCCc1c(-c2ccc(O)cc2)nn(C2CCCC2)c1-c1ccc(O)cc1
**Query** Give the descending Ratio ranking for the 3 molecules listed above. To answer, arrange all of the labels according to the requested order.
**Result** 1, 2, 3

====

biological target: Estrogen receptor (Homo sapiens); experiment: Relative binding affinity (RBA) for human Estrogen receptor alpha compared to estradiol
QUANTITY: Affinity

>  <COMPOUND STRUCTURE STRING>
CCc1c(-c2ccc(O)cc2)nn(-c2ccc(O)cc2)c1C1CCCC1

>  <QUANTITY>
Affinity

>  <OBSERVED MEASUREMENT>
2.1

$$$$

[A] CCCc1c(-c2ccc(O)cc2)nn(-c2ccc(O)cc2)c1C1CCCCC1
[B] CCCc1c(-c2ccc(O)cc2)nn(C2CCCC2)c1-c1ccc(O)cc1
**Query** Identify the entry with the larger Affinity. Options: A and B Answer = label.
**Result** B
(B: 74, A: 1.1)

[I] Oc1ccc(-c2nn(-c3ccc(O)cc3)c3c2CCCC3)cc1
[II] CCCc1c(-c2ccc(O)cc2)nn(-c2ccc(O)cc2)c1C1CCCC1
**Query** Of I versus II , which is the one with smaller reported Affinity? Your choice should be expressed through its label.
**Result** I
(I: 0.56, II: 3.6)

[P] CCCc1c(-c2ccc(O)cc2)nn(-c2ccc(O)cc2)c1-c1ccc(O)cc1
[Q] CCc1c(-c2ccc(O)cc2)nn(-c2ccc(O)cc2)c1C1CCCCC1
[R] CCCc1c(-c2ccc(O)cc2)nn(C2CCCCC2)c1-c1ccc(O)cc1
[S] Oc1ccc(-c2nn(-c3ccc(O)cc3)c3c2CCCCC3)cc1
**Query** Provide the items ranked by increasing Affinity. Would you mind listing the labels in the order requested?
**Result** S, Q, R, P
